Origin of measurements: patent US20230212164A1

The reader will find reported pIC50 values listed item by item below.
target under test: protein-protein interaction between SOS1 and KRAS G12C (Homo sapiens, UniProt P01116, C118S/C51S/C80L/G12C)
Construct: His6 (N)
Sequence (P01116 1-169 isoform P01116-2 G12C/C51S/C80L/C118S): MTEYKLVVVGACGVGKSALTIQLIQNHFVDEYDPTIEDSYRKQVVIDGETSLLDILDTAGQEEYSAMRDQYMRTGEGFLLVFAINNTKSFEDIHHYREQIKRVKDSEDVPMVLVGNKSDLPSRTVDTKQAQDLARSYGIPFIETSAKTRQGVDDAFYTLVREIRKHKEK
test method notes: KRAS::SOS1 AlphaScreen binding assay
condition parameters: Table 36
pIC50: −log10 of the molar value.

- compound: "C=CC(=O)N1CCN(c2cc(-c3noc(C4(C)CCCc5sc(N)c(C#N)c54)n3)nc(N3CCN(CC4CC4)CC3)c2)CC1 (centres unmarked) [Ia-121]"
  pIC50: 7.30
- compound: "C=CC(=O)N(C)CCOc1cc(-c2noc([C@@]3(C)CCCc4sc(N)c(C#N)c43)n2)nc(N2CCCN(C)C[C@@H]2C)n1"
  pIC50: 7.21
- compound: "C=CC(=O)N1CCC2(CCN(c3cc(-c4noc([C@@]5(C)CCCc6sc(N)c(C#N)c65)n4)nc(N4CCCN(CCCOC)C[C@@H]4C)n3)CC2)C1"
  pIC50: 7.23
- compound: "C=CC(=O)N1CCN(c2cc(-c3noc(C4(C)CCCc5sc(N)c(C#N)c54)n3)nc(N3CC[C@H](N4CCCC4)C3)c2)CC1 (some centres unmarked)"
  pIC50: 6.89
- compound: "C=CC(=O)N1CCN(c2cc(-c3noc([C@@]4(C)CCCc5sc(N)c(C#N)c54)n3)nc(N3CCCN(CC4(C)COC4)C[C@@H]3C)n2)CC1"
  pIC50: 8.74
- compound: "C=CC(=O)N1CCC(Oc2cc(-c3noc(C4(C)CCCc5sc(N)c(C#N)c54)n3)nc(N3CCN(C4CCCC4)CC3)c2)CC1 (centres unmarked)"
  pIC50: 6.38
- compound: "C=CC(=O)N1CCN(c2cc(-c3noc(C4(C)CCCc5sc(N)c(C#N)c54)n3)nc(N3CCN4CCC[C@@H]4C3)c2)CC1 (some centres unmarked)"
  pIC50: 7.51
- compound: "C=CC(=O)N1CCN(c2cc(-c3noc(C4(C)CCCc5sc(N)c(C#N)c54)n3)nc(N3CCN(C)CC3)c2)CC1 (centres unmarked)"
  pIC50: 7.29
- compound: "C=CC(=O)N1CCC(Oc2cc(-c3noc(C4(C)CCCc5sc(N)c(C#N)c54)n3)nc(N3CCN(C)C[C@@H]3C)c2)CC1 (some centres unmarked)"
  pIC50: 7.96
- compound: "C=CC(=O)N1CCN(c2cc(-c3noc(C4(C)CCC(C)c5sc(N)c(C#N)c54)n3)nc(N3CCN(C)CC3)c2)CC1 (centres unmarked)"
  pIC50: 6.93
- compound: "C=CC(=O)N1CCN(c2cc(-c3noc([C@@]4(C)CCCc5sc(N)c(C#N)c54)n3)nc(O[C@@H](C)[C@@H]3CCCN3C)n2)C[C@H]1C"
  pIC50: 8.59
- compound: "C=CC(=O)N1CCN(c2cc(-c3noc(C4(C)CCC(C)c5sc(N)c(C#N)c54)n3)nc(N3CCN(CC)CC3)c2)CC1 (centres unmarked)"
  pIC50: 6.84
- compound: "C=CC(=O)N1CCN(c2cc(OCCN3CCCC3)cc(-c3noc(C4(C)CCCc5sc(N)c(C#N)c54)n3)c2)CC1 (centres unmarked)"
  pIC50: 6.19
- compound: "C=CC(=O)NCC1CN(c2cc(-c3noc(C4(C)CCCc5sc(N)c(C#N)c54)n3)nc(N3CCN(C)CC3)c2)C1 (centres unmarked)"
  pIC50: 6.03
- compound: "C=CC(=O)N1CCN(c2cc(-c3noc([C@@]4(C)CCCc5sc(N)c(C#N)c54)n3)nc(N3CCOC[C@@H]3C)n2)CC1"
  pIC50: 6.65
- compound: "C=CC(=O)N1CCN(c2cc(-c3noc([C@@]4(C)CCCc5sc(N)c(C#N)c54)n3)nc(N3CCN(CC)CC3)c2)CC1"
  pIC50: 7.52
- compound: "C=CC(=O)N1CCN(c2cc(-c3noc([C@@]4(C)CCCc5sc(N)c(C#N)c54)n3)nc(N3CC[C@H](O)[C@@H]3C)n2)CC1"
  pIC50: 6.74
- compound: "C=CC(=O)N1CCC2C1CCN2c1cc(-c2noc([C@@]3(C)CCCc4sc(N)c(C#N)c43)n2)nc(N2CCCN(C)C[C@@H]2C)n1 (some centres unmarked)"
  pIC50: 6.84
- compound: "C=CC(=O)N1CCN(c2cc(-c3noc([C@@]4(C)CCCc5sc(N)c(C#N)c54)n3)nc(O[C@@H](C)[C@@H]3CCCN3C)n2)C[C@@H]1C"
  pIC50: 8.80
- compound: "C=CC(=O)N1CCN(c2cc(-c3noc(C4(C)CCCc5sc(N)c(C#N)c54)n3)nc(N3CCN(CCF)CC3)c2)CC1 (centres unmarked)"
  pIC50: 6.63
- compound: "C=CC(=O)N1CCN(c2cc(O[C@@H](C)[C@@H]3CCCN3C)nc(-c3noc([C@@]4(C)CCCc5sc(N)c(C#N)c54)n3)n2)CC1"
  pIC50: 8.85
- compound: "C=CC(=O)N1CCN(c2cc(-c3noc([C@@]4(C)CCCc5sc(N)c(C#N)c54)n3)nc(OC3CC4CCC(C3)N4C)n2)CC1 (some centres unmarked)"
  pIC50: 7.31
- compound: "C=CC(=O)N1CCN(c2cc(-c3noc([C@@]4(C)CCCc5sc(N)c(C#N)c54)n3)nc(OC3CCCC34CCCN4C)n2)CC1 (some centres unmarked)"
  pIC50: 8.40
- compound: "C=CC(=O)N1CCN(c2cc(-c3noc(C4(C)CCCc5sc(N)c(C#N)c54)n3)nc(N3C[C@@H]4C[C@H]3CN4C3CCCC3)c2)CC1 (some centres unmarked)"
  pIC50: 7.20
- compound: "C=CC(=O)N1CCC(Oc2cc(-c3noc(C4(C)CCCc5sc(N)c(C#N)c54)n3)nc(N3CCC(N4CCOCC4)CC3)c2)CC1 (centres unmarked)"
  pIC50: 6.99
- compound: "C=CC(=O)N1[C@@H](C)CN(c2cc(-c3noc([C@@]4(C)CCCc5sc(N)c(C#N)c54)n3)nc(O[C@@H](C)[C@@H]3CCCN3C)n2)C[C@@H]1C"
  pIC50: 8.80
